experiment: Primary imaging screen for DUSP6 inhibitors that restore phospho-Erk in transfected HeLa cells, chemical complementation (AID 609); conditions: HeLa MKP-3 transfected, phospho-Erk imaging KS statistic; measured here: nuclear pErk red intensity z-score; at 10 µM; stronger effect = higher value; cells stimulated with TPA for 15 min
Each entry belongs to exactly one class, chosen by where its z-score falls: bottom = under -0.5, middle = from -0.5 up to 0.5, top = 0.5 and over

| compound | answerLabel |
| --- | --- |
| COc1ccc(-n2c(C)c(C(C)=O)c3cc(O)ccc32)cc1 | top |
| CCOC(=O)C1=C(C)NC(C)=C(C(=O)OC)C1c1cccc([N+](=O)[O-])c1 (centres undefined) | middle |
| Cc1cccc(N2CN=c3s/c(=C\c4ccncc4)c(=O)n3C2)c1 | top |
| COc1ccc(OC)c(N=C(C)C2=C(O)COC2=O)c1 | middle |
| CC(=O)Nc1c(I)c(NC(C)=O)c(I)c(C(=O)O)c1I | middle |
| CCCOc1ccc2nc(NC(=O)OC)[nH]c2c1 | bottom |
| COc1ccc(C(=O)NCC(=O)n2nc(C)cc2C)cc1OC | bottom |
| O=C(CCN1CCCC1Cc1ccccc1)c1ccc2c(c1)OCCO2 (centres undefined) | middle |
| C[N+](C)(C)CCCCCCCCCC[N+](C)(C)C | middle |
| CC1(c2cnc(Nc3ccccc3)s2)CCC(=O)O1 (centres undefined) | bottom |
| COc1cc(C(=O)Nc2ccccn2)cc(OC)c1OC | top |
| CC1(C)CC(=O)C(C2=NC(C)(C)Cc3ccccc32)=C(O)C1 | bottom |
| O=C(CCCN1CCC(O)(c2ccc(Cl)cc2)CC1)c1ccc(F)cc1 | bottom |
| COc1cc2nc(N3CCN(C(=O)C4COc5ccccc5O4)CC3)nc(N)c2cc1OC (centres undefined) | bottom |
| Cc1ncc([N+](=O)[O-])n1CCO | top |
| OCCOCCN1CCN(C(c2ccccc2)c2ccc(Cl)cc2)CC1 (centres undefined) | top |
| O=P(Cc1nnco1)(c1ccccc1)c1ccccc1 | top |
| CN(C)/C=C1\N=C(c2cccs2)OC1=O | middle |
| CC(=O)Oc1ccc(C(c2ccc(OC(C)=O)cc2)c2ccccn2)cc1 | middle |
| O=C1CCc2cc(OCCCCc3nnnn3C3CCCCC3)ccc2N1 | bottom |
| CNC(=O)Oc1ccc2c(c1)[C@]1(C)CCN(C)[C@@H]1N2C | bottom |
| CC1CCc2cc(F)cc3c(=O)c(C(=O)O)cn1c23 (centres undefined) | middle |
| CCCCOc1ccccc1P(=O)(O)CP(=O)(c1ccccc1)c1ccccc1 | middle |
| Cc1cn([C@H]2C=C[C@@H](CO)O2)c(=O)[nH]c1=O | middle |
| C=C(CC)C(=O)c1ccc(OCC(=O)O)c(Cl)c1Cl | top |
| CCCNCC(O)COc1ccccc1C(=O)CCc1ccccc1 (centres undefined) | top |
| CCN1CCN(C(=O)N[C@@H](C(=O)N[C@@H]2C(=O)N3[C@@H]2SC(C)(C)[C@@H]3C(=O)O)c2ccccc2)C(=O)C1=O | bottom |
| COc1cc(C(=O)NCC(=O)n2nc(C)cc2C)cc(OC)c1OC | bottom |
| Cc1c(C(=O)O)sc(=S)n1-c1ccccc1 | middle |

---

experiment: inhibitors of TNFa-induced NFkB p65 translocation, primary screen, imaging, HUVEC, MLSMR starter and 10KST1 sets (AID 438); conditions: HUVEC TNFa-induced p65 nuclear translocation; measured here: nuclei count (cytotoxicity indicator), at 2.08 µM;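 note: compound added about 3h40 before a 20 min TNFalpha stimulation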
cell count by entry:

| compound | cell count |
| --- | --- |
| c1csc(-c2nc3nc4ccccc4nc3n2Cc2ccc3c(c2)OCO3)c1 | 837 |
| O=c1c2c(nc3nc(COc4ccccc4)[nH]n13)CCC2 | 305 |
| CCOc1cc(C2C(C(=O)OC(C)C)=C(C)N=C3SCCC(=O)N32)ccc1OC(C)=O (configuration not stated) | 284 |
| CCn1c(SCC(=O)NCCc2ccc(Cl)cc2)nnc1-c1cccs1 | 616 |
| Cc1ccccc1-c1nc(CN2CCC(C(=O)NCCCN3CCOCC3)CC2)c(C)o1 | 598 |
| CCCn1c(=O)c2ccccc2n2c(SCc3cc(=O)n4ccsc4n3)nnc12 | 556 |
| CCC1Oc2ccccc2N(CC(=O)Nc2ccc(OC)cc2OC)C1=O (configuration not stated) | 726 |

---

biological target: Voltage-gated potassium channel subunit beta-2 (Rattus norvegicus) (UniProt P62483); test: enhancers of rat Kvbeta2 NADPH turnover – biochemical, NADPH fluorescence, primary screen (AID 623); conditions: Recombinant KvBeta, NADPH fluorescence decrease slope, 10 min; at 10 µM; stronger effect = lower value;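 note: fluorescence intensity change per second fitted from 20 to 320 s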
Sequence (P62483 whole entry, looked up): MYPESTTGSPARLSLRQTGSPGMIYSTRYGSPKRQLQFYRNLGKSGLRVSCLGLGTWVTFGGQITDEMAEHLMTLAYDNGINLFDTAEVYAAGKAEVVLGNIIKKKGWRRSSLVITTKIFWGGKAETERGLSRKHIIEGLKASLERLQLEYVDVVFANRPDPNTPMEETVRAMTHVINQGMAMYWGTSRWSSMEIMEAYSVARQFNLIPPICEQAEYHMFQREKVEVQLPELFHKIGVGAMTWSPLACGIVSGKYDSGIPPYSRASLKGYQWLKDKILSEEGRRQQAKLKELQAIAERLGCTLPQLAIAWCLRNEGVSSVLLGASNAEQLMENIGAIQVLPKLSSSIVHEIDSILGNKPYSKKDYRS
testReadout: NADPH fluorescence slope

| compound | testReadout | measValue |
| --- | --- | --- |
| Cc1ccc2nc(SC(C)C(=O)N3CCCC3)[nH]c2c1 (stereo unspecified) | NADPH fluorescence slope | 6e-05 |
| Cc1ccc2nc(NC(=O)C3CCN(S(=O)(=O)c4cccc5nsnc45)CC3)sc2c1 | NADPH fluorescence slope | -9.1e-05 |
| O=C(c1ccc(Cl)cc1)C1CCN(C(=O)NC2CCCCC2)CC1 | NADPH fluorescence slope | -1.3e-05 |
| CCOc1cccc(Oc2ccc(C(F)(F)F)cn2)c1 | NADPH fluorescence slope | 1.7e-05 |
| CS(=O)(=O)Nc1ccc(C(=O)NCc2ccco2)cc1 | NADPH fluorescence slope | 1.2e-06 |
| C=CCOC(=O)C(C#N)c1nc2ccccc2nc1N1CCN(Cc2ccccc2)CC1 (stereo unspecified) | NADPH fluorescence slope | 6.8e-05 |
| O=C(OCc1nnc(-c2ccccc2)o1)C1=COCCO1 | NADPH fluorescence slope | -1.1e-05 |
| Cc1ccc(C(C)C)c(OCCCN2CC(C)OC(C)C2)c1 (stereo unspecified) | NADPH fluorescence slope | -5.1e-06 |
| CCC(=O)Oc1oc(-c2ccccc2)nc1C=Nc1ccccc1OC | NADPH fluorescence slope | -4.4e-05 |
| O=C(O)CSc1ccc2ccccc2n1 | NADPH fluorescence slope | -3.7e-05 |
| Cc1cc(-c2nc3ncccc3o2)ccc1N | NADPH fluorescence slope | 9.6e-08 |

---

assay: reduction of polyQ htt aggregates in cells – imaging, exon1htt(103Q)mCFP cells, high-content imaging, primary screen (AID 483); conditions: exon1htt(103Q)mCFP cell line, aggregate imaging, at 2 µM; stronger effect = higher value;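 note: compound exposure lasted 3 days before fixation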
testReadout: inhibition of aggregation (%)

| compound | testReadout | measValue |
| --- | --- | --- |
| FC(F)(F)COc1nc(N2CCCCC2)nc(N2CCNCC2)n1 | inhibition of aggregation | -3.5 |
| O=C(O)CSc1ccc2ccccc2n1 | inhibition of aggregation | 1.4 |
| CCn1c(SCC(=O)NCCc2ccc(Cl)cc2)nnc1-c1cccs1 | inhibition of aggregation | 25.3 |
| COc1ccc2c(C(=O)CN(C)C3CCCCC3)c[nH]c2c1 | inhibition of aggregation | -4.4 |
| CC(=O)N1C(=O)c2cccc3cccc(c23)C(=O)N1C(C)=O | inhibition of aggregation | -3.8 |
| O=c1c(O)c(-c2ccc(O)cc2O)oc2cc(O)cc(O)c12 | inhibition of aggregation | 2.1 |
| N#Cc1nc(-c2cccs2)oc1NCc1ccc(Cl)cc1 | inhibition of aggregation | 19.1 |
| COc1ccc(C2=NOC(C(=O)NCCCN3CCOCC3)C2)cc1 (stereo not drawn) | inhibition of aggregation | 11.3 |
| Cc1ccc2nc(CSc3nnc(-c4ccco4)n3-c3ccccc3)cc(=O)n2c1 | inhibition of aggregation | -2 |
| CC(=O)[C@H]1CC[C@H]2[C@@H]3CCC4=CC(=O)CC[C@]4(C)[C@H]3CC[C@]12C | inhibition of aggregation | -5.3 |
| CCOC(=O)C1CCN(C(=O)CSc2n[nH]c(=O)[nH]c2=O)CC1 | inhibition of aggregation | 16.5 |
| CN(CC(=O)N1CCN(c2ccc(F)cc2)CC1)S(=O)(=O)c1ccc(F)cc1 | inhibition of aggregation | -9.8 |
| O=C(CSc1nnnn1-c1ccccc1)Nc1nsc(-c2ccc(Cl)cc2)n1 | inhibition of aggregation | 17.3 |

---

assay: endothelial E-selectin expression blockers – imaging, HUVEC, immunofluorescence, MLSMR starter and 10KST1 sets, primary screen (AID 487); conditions: HUVEC TNFalpha-induced E-selectin immunofluorescence imaging, at 2 µM; measured here: cell number, toxicity;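 note: 100% = median nuclei count of all wells on the same plate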
Where a SMILES comes first, the peptide text is derived from it. The star is where a group is joined. Boc = CC(C)(C)OC(=O)*
nuclei count by entry:
testReadout: nuclei count (%)

| compound | unitSymbol | measValue |
| --- | --- | --- |
| CC(=O)c1c(C)nc(C)nc1NC(=O)Cc1ccccc1 | % | 84.4 |
| O=C(C1CCC1)N1CCc2cc(S(=O)(=O)Nc3ccc4c(c3)OCO4)ccc21 | % | 137 |
| CCn1c(=O)cc(SCC(=O)Nc2cccnc2)c2ccccc21 | % | 116 |
| O=C(c1ccccc1)c1ccc2nc[nH]c2c1 | % | 128 |
| Cc1ccc2nc(CSc3nnc(-c4ccco4)n3-c3ccccc3)cc(=O)n2c1 | % | 201 |
| Cc1cc(C)n(C(=O)CNC(=O)c2ccc3c(c2)OCCO3)n1 | % | 162 |
| O=C(CSc1nnc(Cn2nnc(-c3ccccc3)n2)n1-c1ccccc1)Nc1ccc(F)cc1 | % | 111 |
| CC(c1ccccc1)N1C(=O)c2ccc(C(=O)NCc3ccco3)cc2C1=O (stereo not drawn) | % | 93.8 |
| NC(=O)C1(N2CCCCC2)CCN(Cc2ccccc2Cl)CC1 | % | 103 |
| CCOc1ccc(OCC)c2sc(C)nc12 | % | 106 |
| COc1ccc(-c2nn(-c3ccccc3)cc2/C=N/n2cnnc2)cc1OC | % | 108 |
| Cc1ccc(-c2csc3nnc(SCC(=O)NCc4ccco4)n23)cc1 | % | 94.1 |
| COc1ccc2c(c1)C(=NO)c1cc(OC)ccc1-2 | % | 116 |
| CC1Oc2ccccc2N(CC(=O)N(Cc2ccccc2)Cc2ccccn2)C1=O (stereo not drawn) | % | 112 |
| Cc1cc(C(=O)Nc2cc(C)n(Cc3ccc(Cl)cc3)n2)no1 | % | 88.4 |
| O=C(Cc1ccc(Br)cc1)N1CCCCCC1 | % | 99.7 |
| CC(C)CC(NC(=O)OC(C)(C)C)C(=O)NC(C(=O)NC(C)C(N)=O)C(C)C (stereo not drawn) (Boc-Leu-Val-Ala-NH2; configuration not given here) | % | 117 |
| CCOCCCNc1ncnc2c1[nH]c1ccccc12 | % | 109 |
| O=C(O)CSc1ccc2ccccc2n1 | % | 102 |
| COc1ccc(CC(=O)OCc2nnc(C3COc4ccccc4O3)o2)cc1OC (stereo not drawn) | % | 85.8 |
| Cn1cccc1C1NC(=O)c2c(sc3c2CCC(C(C)(C)C)C3)N1 (stereo not drawn) | % | 127 |
| CCOC(=O)c1cc(-c2ccc3c(c2)OCO3)nc2onc(C)c12 | % | 106 |
| CSc1nc(NC(C)(C)C)nc(Oc2ccc(=O)[nH]n2)n1 | % | 107 |
| COc1ccc(-c2nc(N)nc(C)c2Oc2ccccc2Br)c(O)c1 | % | 85.6 |
| CCn1c(SCC(N)=O)nc2c1c(=O)n(C)c(=O)n2C | % | 152 |
| Cc1nnc(SCC(=O)NC(C)(C)C)n1CCc1ccccc1 | % | 135 |
| CC1=C(C#N)C(c2ccoc2)C(C(=O)OCc2ccccc2)=C(N)S1 (stereo not drawn) | % | 102 |
| Cc1ccc(C(C)C)c(OCCCN2CC(C)OC(C)C2)c1 (stereo not drawn) | % | 100 |
